target: full-length beta-Catenin (Uniprot ID P35222) (Homo sapiens, UniProt P35222); construct: 10 nM full-length beta-Catenin (Uniprot ID P35222); assay: Fluorescence polarization IC50 (beta-catenin / 5FAM-TCF4 10-53 competition); assay type: binding; conditions: read-out: FP EC50
Sequence (P35222 whole entry): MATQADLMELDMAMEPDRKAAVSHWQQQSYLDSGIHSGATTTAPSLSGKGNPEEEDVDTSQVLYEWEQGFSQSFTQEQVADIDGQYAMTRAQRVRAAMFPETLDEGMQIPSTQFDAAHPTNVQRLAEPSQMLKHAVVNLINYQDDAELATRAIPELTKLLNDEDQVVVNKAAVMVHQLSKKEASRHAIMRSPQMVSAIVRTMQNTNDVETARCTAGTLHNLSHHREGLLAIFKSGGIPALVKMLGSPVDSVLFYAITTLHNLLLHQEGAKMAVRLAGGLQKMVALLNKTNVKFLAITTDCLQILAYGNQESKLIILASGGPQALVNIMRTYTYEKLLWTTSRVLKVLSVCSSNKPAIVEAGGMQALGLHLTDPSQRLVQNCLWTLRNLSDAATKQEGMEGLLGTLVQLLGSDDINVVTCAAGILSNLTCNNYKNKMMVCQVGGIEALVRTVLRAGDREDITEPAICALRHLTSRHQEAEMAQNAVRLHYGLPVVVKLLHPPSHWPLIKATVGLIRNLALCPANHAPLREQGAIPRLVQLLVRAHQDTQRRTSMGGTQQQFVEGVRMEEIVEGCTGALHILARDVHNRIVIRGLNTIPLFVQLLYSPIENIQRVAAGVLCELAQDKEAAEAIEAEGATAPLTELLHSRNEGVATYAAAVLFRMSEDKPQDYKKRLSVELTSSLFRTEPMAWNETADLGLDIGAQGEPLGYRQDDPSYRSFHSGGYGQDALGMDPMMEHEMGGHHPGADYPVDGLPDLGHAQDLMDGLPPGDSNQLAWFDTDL
experimental_endpoint: pIC50
Numbers only, as −log10 of the molar value.

CC[C@H](C)[C@@H]1NC(=O)[C@H](CC(=O)O)NC(=O)[C@]2(CC=CCCCC3(CCCC=CCCCCCC[C@@](C)(C(=O)N[C@@H](Cc4ccccc4)C(=O)N[C@@H](Cc4csc5ccccc45)C(=O)N[C@@H](CCC(N)=O)C(N)=O)NC(=O)[C@H](CCC(N)=O)NC(=O)[C@H](Cc4ccccc4)NC(=O)[C@H](C)NC(=O)[C@H](Cc4ccccc4)NC(=O)[C@H](CCC(=O)O)NC(=O)[C@H](CC(=O)O)NC3=O)NC1=O)CCCN2C(C)=O (stereo partly drawn) [I-649]; 6.68
CC(=O)N1CCC[C@]12CC=CCCCC1(CCCC=CCOC(=O)N(C)CCC[C@@](C)(C(=O)N[C@@H](Cc3ccsc3)C(=O)N[C@@H](Cc3csc4ccccc34)C(=O)N[C@@H](Cc3c[nH]cn3)C(N)=O)NC(=O)[C@H](CC(N)=O)NC(=O)[C@H](Cc3ccccc3)NC(=O)[C@H](C)NC(=O)[C@H](C)NC(=O)[C@H](CC(=O)O)NC(=O)[C@H](CC(=O)O)NC1=O)NC(=O)[C@H](CC(C)(C)C)NC(=O)[C@H](CC(=O)O)NC2=O (stereo partly drawn) [I-774]; 7.42

Proceed to the following item.
Param request: pIC50 | system full-length beta-Catenin (Uniprot ID P35222) (Homo sapiens, UniProt P35222) | item CC(=O)N1CCC[C@]12CC=CCCCC1(CCCC=CCCCOC(=O)N3CC[C@@](C(=O)N[C@@H](Cc4ccccc4)C(=O)N[C@@H](Cc4csc5ccccc45)C(=O)N[C@@H](Cc4c[nH]cn4)C(N)=O)(C3)NC(=O)[C@H](CC(N)=O)NC(=O)[C@H](Cc3ccccc3)NC(=O)[C@H](C)NC(=O)[C@H](C)NC(=O)[C@H](CCC(=O)O)NC(=O)[C@H](CC(=O)O)NC1=O)NC(=O)[C@H](CC(C)(C)C)NC(=O)[C@H](CC(=O)O)NC2=O (stereo partly drawn) [I-693]
7.92

* * *

Provide the recorded pIC50 for the entries that follow.
target: beta-catenin/TCF4 engagement (Homo sapiens); construct: expressed in transfected cells; host or cells: HEK293; experiment: Nano-BRET target engagement assay (B-cat-Halo & TCF4-Luc in HEK293 cells); type: cell-based; conditions: read-out: NanoBRET Abs IC50
Sequence (P35222 whole entry): as above
One number for each entry, as −log10 of the molar value.

Consider the following illustrative entries.
CC(=O)N1CCC[C@]12CC=CCCCC1(CCCC=CCCCOC(=O)N3CC[C@@](C(=O)N[C@@H](Cc4ccsc4)C(=O)N[C@@H](Cc4csc5ccccc45)C(=O)N[C@H](C(N)=O)C(C)C)(C3)NC(=O)[C@H](CC(C)C)NC(=O)[C@H](Cc3ccccc3)NC(=O)[C@H](C)NC(=O)[C@H](CC(=O)N(C)C)NC(=O)[C@H](Cc3cccc(C(=O)O)c3)NC(=O)[C@H](CC(=O)O)NC1=O)NC(=O)[C@H](CC(C)(C)C)NC(=O)[C@H](CC(=O)O)NC2=O (stereo partly drawn) [I-2191]; 4.53
CC(=O)N1CCC[C@]12CC=CCCCC1(CCCC=CCCCOC(=O)N3CC[C@@](C(=O)N[C@@H](Cc4ccsc4)C(=O)N[C@@H](Cc4csc5ccccc45)C(=O)N[C@@H](C)C(N)=O)(C3)NC(=O)[C@H](CC(C)C)NC(=O)[C@H](Cc3ccccc3)NC(=O)[C@H](C)NC(=O)[C@H](CCC(N)=O)NC(=O)[C@H](Cc3cccc(C(=O)O)c3)NC(=O)[C@H](CC(=O)O)NC1=O)NC(=O)[C@H](CC(C)(C)C)NC(=O)[C@H](CC(=O)O)NC2=O (stereo partly drawn) [I-1918]; 5.40

For each of the compounds below, state pIC50.
1. CC(=O)N1CCC[C@]12CC=CCCCC1(CCCC=CCCCOC(=O)N3CC[C@@](C(=O)N[C@@H](Cc4ccccc4Cl)C(=O)N[C@@H](Cc4csc5ccccc45)C(=O)N[C@@H](CC(N)=O)C(N)=O)(C3)NC(=O)[C@H](C)NC(=O)[C@H](Cc3ccccc3)NC(=O)[C@H](C)NC(=O)[C@H](C)NC(=O)[C@H](Cc3cccc(C(=O)O)c3)NC(=O)[C@H](CC(=O)O)NC1=O)NC(=O)[C@H](CC(C)(C)C)NC(=O)[C@H](CC(=O)O)NC2=O (stereo partly drawn) [I-2036]
2. CC(=O)N1CCC[C@]12CC=CCCCC1(CCCC=CCCCOC(=O)N3CC[C@@](C(=O)N[C@@H](Cc4ccccc4C(F)(F)F)C(=O)N[C@@H](Cc4csc5ccccc45)C(=O)N[C@H](CCC(N)=O)C(N)=O)(C3)NC(=O)[C@H](Cc3ccccc3)NC(=O)[C@H](Cc3ccccc3)NC(=O)[C@H](C)NC(=O)[C@H](C)NC(=O)[C@H](Cc3cccc(C(=O)O)c3)NC(=O)[C@H](CC(=O)O)NC1=O)NC(=O)[C@H](CC(C)(C)C)NC(=O)[C@H](CC(=O)O)NC2=O (stereo partly drawn) [I-2093]
3. CC(=O)N1CCC[C@]12CC=CCCCC1(CCCC=CCCCOC(=O)N3CC[C@@](C(=O)N[C@@H](Cc4ccccc4Cl)C(=O)N[C@@H](Cc4csc5ccccc45)C(=O)N[C@@H](C)C(N)=O)(C3)NC(=O)[C@H](CC(C)C)NC(=O)[C@H](Cc3ccccc3)NC(=O)[C@H](C)NC(=O)[C@H](C)NC(=O)[C@H](Cc3cccc(C(=O)O)c3)NC(=O)[C@H](CC(=O)O)NC1=O)NC(=O)[C@H](CC(C)(C)C)NC(=O)[C@H](CC(=O)O)NC2=O (stereo partly drawn) [I-1851]

1. 4.89
2. 5.30
3. 5.42

For each of the compounds below, state pIC50.
1. CC(=O)N1CCC[C@]12CC=CCCCC1(CCCC=CCCCOC(=O)N3CC[C@@](C(=O)N[C@@H](Cc4ccsc4)C(=O)N[C@@H](Cc4csc5ccccc45)C(=O)N[C@@H](CO)C(N)=O)(C3)NC(=O)[C@H](CC(C)C)NC(=O)[C@H](Cc3ccccc3)NC(=O)[C@H](C)NC(=O)[C@H](C)NC(=O)[C@H](Cc3ccc(F)c(C(=O)O)c3)NC(=O)[C@H](CC(=O)O)NC1=O)NC(=O)[C@H](CC(C)(C)C)NC(=O)[C@H](CC(=O)O)NC2=O (stereo partly drawn) [I-2202]
2. CC(=O)N1CCC[C@]12CC=CCCCC1(CCCC=CCCCOC(=O)N3CC[C@@](C(=O)N[C@@H](Cc4ccccc4Cl)C(=O)N[C@@H](Cc4csc5ccccc45)C(=O)N[C@@H](CC(N)=O)C(N)=O)(C3)NC(=O)[C@H](CO)NC(=O)[C@H](Cc3ccccc3)NC(=O)[C@H](C)NC(=O)[C@H](C)NC(=O)[C@H](Cc3cccc(C(=O)O)c3)NC(=O)[C@H](CC(=O)O)NC1=O)NC(=O)[C@H](CC(C)(C)C)NC(=O)[C@H](CC(=O)O)NC2=O (stereo partly drawn) [I-2039]
3. CC(=O)N1CCC[C@]12CC=CCCCC1(CCCC=CCCCOC(=O)N3CC[C@@](C(=O)N[C@@H](Cc4ccsc4)C(=O)N[C@@H](Cc4csc5ccccc45)C(=O)N[C@@H](CC(N)=O)C(N)=O)(C3)NC(=O)[C@H](Cc3ccccc3)NC(=O)[C@H](Cc3ccccc3)NC(=O)[C@H](C)NC(=O)[C@H](C)NC(=O)[C@H](Cc3cccc(C(=O)O)c3)NC(=O)[C@H](CC(=O)O)NC1=O)NC(=O)[C@H](CC(C)(C)C)NC(=O)[C@H](CC(=O)O)NC2=O (stereo partly drawn) [I-2044]

5.30
4.98
5.59
